study-system: tissue transglutaminase (TG2), C-terminal His-tag TG2 (Homo sapiens, UniProt P21980)
Construct: host or cells: Novagen Rosetta 2 (DE3) E. coli
Sequence (P21980 whole entry): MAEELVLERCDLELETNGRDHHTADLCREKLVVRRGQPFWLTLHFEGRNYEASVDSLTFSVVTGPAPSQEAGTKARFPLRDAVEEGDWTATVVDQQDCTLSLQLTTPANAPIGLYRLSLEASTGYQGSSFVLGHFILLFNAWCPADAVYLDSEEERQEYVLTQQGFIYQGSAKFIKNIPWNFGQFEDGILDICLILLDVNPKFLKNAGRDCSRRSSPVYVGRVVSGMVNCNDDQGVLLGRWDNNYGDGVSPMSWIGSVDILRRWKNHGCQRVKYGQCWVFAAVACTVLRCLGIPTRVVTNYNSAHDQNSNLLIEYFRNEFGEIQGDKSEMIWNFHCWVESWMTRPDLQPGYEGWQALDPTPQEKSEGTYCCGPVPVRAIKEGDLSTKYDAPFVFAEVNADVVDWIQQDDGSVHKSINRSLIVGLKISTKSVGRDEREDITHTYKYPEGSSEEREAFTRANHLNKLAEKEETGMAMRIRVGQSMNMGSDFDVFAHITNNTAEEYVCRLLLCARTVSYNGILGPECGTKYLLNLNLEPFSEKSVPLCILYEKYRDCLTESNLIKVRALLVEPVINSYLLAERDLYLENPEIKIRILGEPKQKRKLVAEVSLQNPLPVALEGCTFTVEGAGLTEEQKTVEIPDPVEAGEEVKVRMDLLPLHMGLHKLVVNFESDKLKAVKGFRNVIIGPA
test-details: continuous AL5 hydrolysis assay of irreversible TG2 inhibition (kobs vs [I]/α)
Assay type: biochemical
experimental-conditions: supplement, kinetics data and fitting
measured-parameter: KI (inactivation) (µM)
Return type: number; implicit unit µM.

Ask: Given the compound C=CC(=O)NCC(=O)N1CCN(C(=O)C23CC4CC(C2)CC(c2ccccc2)(C4)C3)CC1 [Compound 25d] , what is its reported KI (inactivation)?
Reply: 0.691

Ask: Given the compound C=CC(=O)NCC(=O)N1CCN(C(=O)c2ccccc2Cc2ccccc2)CC1 [Compound 22a] , what is its reported KI (inactivation)?
Reply: 14.2

Ask: Given the compound C=CC(=O)NCC(=O)N1CCN(C(=O)C2CCCCC2)CC1 , what is its reported KI (inactivation)?
Reply: 7.14

Ask: Given the compound C=CC(=O)NCC(=O)N1CCN(S(=O)(=O)C23CC4CC(CC(C4)C2)C3)CC1 , what is its reported KI (inactivation)?
Reply: 7.56

Ask: Given the compound C=CC(=O)NCC(=O)N1CCN(C(=O)c2ccccc2-c2cccc(C)c2)CC1 [Compound 21b] , what is its reported KI (inactivation)?
Reply: 2.64

Ask: Given the compound C=CC(=O)NCC(=O)N1CCN(C(=O)c2cccc(-c3ccccc3)c2)CC1 , what is its reported KI (inactivation)?
Reply: 5.29

###

study-system: tissue transglutaminase (TG2), C-terminal His-tag TG2 (Homo sapiens)
Construct: host or cells: Novagen Rosetta 2 (DE3) E. coli
test-details: continuous AL5 hydrolysis assay of irreversible TG2 inhibition (kobs vs [I]/α)
Type: biochemical
experimental-conditions: irreversible inhibition, AL5 100 μM, pH 6.9, 25 °C, triplicate
measured-parameter: KI (inactivation) (µM)
Return type: number; implicit unit µM.

Ask: Given the compound C=CC(=O)NCC(=O)N1CCN(C(=O)c2ccccc2-c2ccccc2C)CC1 [Compound 21a] , what is its reported KI (inactivation)?
Reply: 4.8

Ask: Given the compound C=CC(=O)NCC(=O)N1CCN(C(=O)c2ccccc2-c2ccccc2)CC1 [Compound 7a] , what is its reported KI (inactivation)?
Reply: 3.2

Ask: Given the compound C=CC(=O)NCC(=O)N1CCN(C(=O)c2ccccc2Nc2ccccc2)CC1 [Compound 22c] , what is its reported KI (inactivation)?
Reply: 6.4

Ask: Given the compound C=CC(=O)NCC(=O)N1CCN(C(=O)C23CC4CC(CC(F)(C4)C2)C3)CC1 [Compound 25a] , what is its reported KI (inactivation)?
Reply: 3.15

Ask: Given the compound C=CC(=O)NCC(=O)N1CCN(C(=O)c2cccc(Oc3ccccc3)c2)CC1 [Compound 22e] , what is its reported KI (inactivation)?
Reply: 11.9

Ask: Given the compound C=CC(=O)NCC(=O)N1CCN(C(=O)c2cccc(-c3ccc(C)cc3)c2)CC1 [Compound 21f] , what is its reported KI (inactivation)?
Reply: 2.3

Ask: Given the compound C=CC(=O)NCC(=O)N1CCN(C(=O)c2ccc(-c3cccc(C)c3)cc2)CC1 [Compound 21h] , what is its reported KI (inactivation)?
Reply: 38.9

Ask: Given the compound C=CC(=O)NCC(=O)N1CCN(C(=O)C2CCCCCC2)CC1 [Compound 6e] , what is its reported KI (inactivation)?
Reply: 21.5

###

test-details: parallel artificial membrane permeability assay (PAMPA), at Pharmaron
Assay type: in vitro ADME
experimental-conditions: read-out: Pe
measured-parameter: Papp (×10⁻⁶ cm/s)
Return type: number; implicit unit ×10⁻⁶ cm/s.

Ask: Given the compound C=CC(=O)NCC(=O)N1CCN(C(=O)C23CC4CC(CC(Cl)(C4)C2)C3)CC1 [Compound 25b] , what is its reported Papp?
Reply: 1.41

###

study-system: tissue transglutaminase (TG2), C-terminal His-tag TG2 (Homo sapiens)
Construct: host or cells: Novagen Rosetta 2 (DE3) E. coli
test-details: continuous AL5 hydrolysis assay of irreversible TG2 inhibition (kobs vs [I]/α)
Assay type: biochemical
Please note: rule met applies when kinact is 0.01 s⁻¹ or greater, and rule not met applies otherwise.

Ask: Identify whether the reported kinact of the following compound is 0.01 s⁻¹ or greater: C=CC(=O)NCC(=O)N1CCN(C(=O)c2ccccc2-c2ccc(C)cc2)CC1 [Compound 21c]
Reply: rule not met

Ask: Identify whether the reported kinact of the following compound is 0.01 s⁻¹ or greater: C=CC(=O)NCC(=O)N1CCN(C(=O)C23CC4CC(CC(Cl)(C4)C2)C3)CC1 [Compound 25b]
Reply: rule met

Ask: Identify whether the reported kinact of the following compound is 0.01 s⁻¹ or greater: C=CC(=O)NCC(=O)N1CCN(C(=O)c2cccc(Nc3ccccc3)c2)CC1 [Compound 22f]
Reply: rule met

Ask: Identify whether the reported kinact of the following compound is 0.01 s⁻¹ or greater: C=CC(=O)NCC(=O)N1CCN(C(=O)c2ccccc2Nc2ccccc2)CC1 [Compound 22c]
Reply: rule met

Ask: Identify whether the reported kinact of the following compound is 0.01 s⁻¹ or greater: C=CC(=O)NCC(=O)N1CCN(S(=O)(=O)C23CC4CC(CC(C4)C2)C3)CC1
Reply: rule met

Ask: Identify whether the reported kinact of the following compound is 0.01 s⁻¹ or greater: C=CC(=O)NCC(=O)N1CCN(C(=O)C23CC4CC(CC(I)(C4)C2)C3)CC1
Reply: rule met

Ask: Identify whether the reported kinact of the following compound is 0.01 s⁻¹ or greater: C=CC(=O)NCC(=O)N1CCN(C(=O)c2cccc(-c3ccc(C)cc3)c2)CC1 [Compound 21f]
Reply: rule not met

Ask: Identify whether the reported kinact of the following compound is 0.01 s⁻¹ or greater: C=CC(=O)NCC(=O)N1CCN(C(=O)c2ccccc2-c2ccccc2)CC1
Reply: rule not met

Ask: Identify whether the reported kinact of the following compound is 0.01 s⁻¹ or greater: C=CC(=O)NCC(=O)N1CCN(C(=O)c2cccc(Cc3ccccc3)c2)CC1 [Compound 22d]
Reply: rule met

Ask: Identify whether the reported kinact of the following compound is 0.01 s⁻¹ or greater: C=CC(=O)NCC(=O)N1CCN(C(=O)c2ccc(-c3ccccc3C)cc2)CC1 [Compound 21g]
Reply: rule met

Ask: Identify whether the reported kinact of the following compound is 0.01 s⁻¹ or greater: C=CC(=O)NCC(=O)N1CCN(C(=O)c2cccc(Oc3ccccc3)c2)CC1 [Compound 22e]
Reply: rule met

Ask: Identify whether the reported kinact of the following compound is 0.01 s⁻¹ or greater: C=CC(=O)NCC(=O)N1CCN(C(=O)c2ccc(Nc3ccccc3)cc2)CC1 [Compound 22i]
Reply: rule met

Ask: Identify whether the reported kinact of the following compound is 0.01 s⁻¹ or greater: C=CC(=O)NCC(=O)N1CCN(C(=O)C23CC4CC(C2)CC(c2ccccc2)(C4)C3)CC1 [Compound 25d]
Reply: rule met

Ask: Identify whether the reported kinact of the following compound is 0.01 s⁻¹ or greater: C=CC(=O)NCC(=O)N1CCN(C(=O)C2CCC2)CC1
Reply: rule not met

Ask: Identify whether the reported kinact of the following compound is 0.01 s⁻¹ or greater: C=CC(=O)NCC(=O)N1CCN(C(=O)c2ccc(Cc3ccccc3)cc2)CC1 [Compound 22g]
Reply: rule met

Ask: Identify whether the reported kinact of the following compound is 0.01 s⁻¹ or greater: C=CC(=O)NCC(=O)N1CCN(C(=O)c2ccc(-c3cccc(C)c3)cc2)CC1 [Compound 21h]
Reply: rule met

Ask: Identify whether the reported kinact of the following compound is 0.01 s⁻¹ or greater: C=CC(=O)NCC(=O)N1CCN(C(=O)c2cccc(-c3ccccc3)c2)CC1
Reply: rule met

Ask: Identify whether the reported kinact of the following compound is 0.01 s⁻¹ or greater: C=CC(=O)NCC(=O)N1CCN(C(=O)C2CCCC2)CC1
Reply: rule not met

Ask: Identify whether the reported kinact of the following compound is 0.01 s⁻¹ or greater: C=CC(=O)NCC(=O)N1CCN(C(=O)C23CC4CC(CC(C4)C2)C3)CC1 [EB-2-16, reference compound]
Reply: rule met

Ask: Identify whether the reported kinact of the following compound is 0.01 s⁻¹ or greater: C=CC(=O)NCC(=O)N1CCN(C(=O)C2CCCCC2)CC1
Reply: rule met

Ask: Identify whether the reported kinact of the following compound is 0.01 s⁻¹ or greater: C=CC(=O)NCC(=O)N1CCN(C(=O)c2ccccc2Oc2ccccc2)CC1 [Compound 22b]
Reply: rule met

Ask: Identify whether the reported kinact of the following compound is 0.01 s⁻¹ or greater: C=CC(=O)NCC(=O)N1CCN(C(=O)c2ccccc2-c2cccc(C)c2)CC1 [Compound 21b]
Reply: rule not met

Ask: Identify whether the reported kinact of the following compound is 0.01 s⁻¹ or greater: C=CC(=O)NCC(=O)N1CCN(C(=O)c2cccc(-c3ccccc3C)c2)CC1 [Compound 21d]
Reply: rule met

Ask: Identify whether the reported kinact of the following compound is 0.01 s⁻¹ or greater: C=CC(=O)NCC(=O)N1CCN(C(=O)c2ccccc2)CC1
Reply: rule not met

Ask: Identify whether the reported kinact of the following compound is 0.01 s⁻¹ or greater: C=CC(=O)NCC(=O)N1CCN(C(=O)c2ccccc2-c2ccccc2C)CC1 [Compound 21a]
Reply: rule not met

Ask: Identify whether the reported kinact of the following compound is 0.01 s⁻¹ or greater: C=CC(=O)NCC(=O)N1CCN(C(=O)C23CC4CC(CC(Br)(C4)C2)C3)CC1 [Compound 25c]
Reply: rule met

Ask: Identify whether the reported kinact of the following compound is 0.01 s⁻¹ or greater: C=CC(=O)NCC(=O)N1CCN(C(=O)C2CC2)CC1
Reply: rule not met

Ask: Identify whether the reported kinact of the following compound is 0.01 s⁻¹ or greater: C=CC(=O)NCC(=O)N1CCN(C(=O)c2ccc(-c3ccccc3)cc2)CC1
Reply: rule met

Ask: Identify whether the reported kinact of the following compound is 0.01 s⁻¹ or greater: C=CC(=O)NCC(=O)N1CCN(C(=O)c2ccccc2Cc2ccccc2)CC1 [Compound 22a]
Reply: rule met

Ask: Identify whether the reported kinact of the following compound is 0.01 s⁻¹ or greater: C=CC(=O)NCC(=O)N1CCN(C(=O)c2cccc(-c3cccc(C)c3)c2)CC1 [Compound 21e]
Reply: rule met

Data provenance: paper PMC12631574
